molecular target: SCD1 (Rattus norvegicus (Rat), UniProt P07308)
Sequence (P07308 whole entry): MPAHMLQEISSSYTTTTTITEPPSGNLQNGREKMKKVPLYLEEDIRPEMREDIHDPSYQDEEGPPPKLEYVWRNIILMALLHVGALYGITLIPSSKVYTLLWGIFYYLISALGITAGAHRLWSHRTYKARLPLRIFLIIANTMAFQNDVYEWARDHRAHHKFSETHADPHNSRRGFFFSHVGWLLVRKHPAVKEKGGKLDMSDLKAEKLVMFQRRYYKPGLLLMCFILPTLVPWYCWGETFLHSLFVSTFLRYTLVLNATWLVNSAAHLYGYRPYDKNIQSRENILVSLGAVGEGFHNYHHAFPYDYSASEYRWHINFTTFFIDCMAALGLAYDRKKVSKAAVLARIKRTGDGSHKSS
ASSAY_READOUT: IC50 (µM)

[
  {
    "COMPOUND": "NC(=O)c1cc(NC(=O)N2CCC(N3CCc4ccc(F)cc43)CC2)ccc1CO [Compound 48]",
    "VALUE_PREFIX": "=",
    "ASSAY_RESULT": 0.909
  },
  {
    "COMPOUND": "CCOC(=O)c1cccc(NC(=O)N2CCC(N3CCc4ccc(F)cc43)CC2)c1 [Compound 41]",
    "VALUE_PREFIX": "=",
    "ASSAY_RESULT": 0.534
  },
  {
    "COMPOUND": "NC(=O)c1cccc(NC(=O)N2CCC(c3noc4ccc(F)cc34)CC2)c1 [Compound 17]",
    "VALUE_PREFIX": "=",
    "ASSAY_RESULT": 0.208
  },
  {
    "COMPOUND": "NC(=O)c1csc(NC(=O)N2CCC(N3CCc4ccc(F)cc43)CC2)n1 [Compound 26]",
    "VALUE_PREFIX": "=",
    "ASSAY_RESULT": 0.682
  },
  {
    "COMPOUND": "O=C(Nc1ncc(CCO)s1)N1CCC(N2CCc3ccc(F)cc32)CC1 [Compound 50]",
    "VALUE_PREFIX": "=",
    "ASSAY_RESULT": 0.008
  },
  {
    "COMPOUND": "CNC(=O)c1cccc(NC(=O)N2CCC(n3ccc4ccccc43)CC2)c1 [Compound 2]",
    "VALUE_PREFIX": "=",
    "ASSAY_RESULT": 0.17
  },
  {
    "COMPOUND": "CNC(=O)c1cnc(NC(=O)N2CCC(N3CCc4ccc(F)cc43)CC2)s1 [Compound 19]",
    "VALUE_PREFIX": "=",
    "ASSAY_RESULT": 0.093
  },
  {
    "COMPOUND": "Cc1csc(NC(=O)N2CCC(N3CCCc4ccccc43)CC2)n1 [Compound 13]",
    "VALUE_PREFIX": "=",
    "ASSAY_RESULT": 0.491
  },
  {
    "COMPOUND": "CCCc1nc2ccc(NC(=O)N3CCC(c4noc5ccc(F)cc45)CC3)cc2o1 [Compound 7]",
    "VALUE_PREFIX": "=",
    "ASSAY_RESULT": 1.01
  },
  {
    "COMPOUND": "CNC(=O)c1cccc(NC(=O)N2CCC(N3CCc4ccccc43)CC2)c1 [Compound 12]",
    "VALUE_PREFIX": "=",
    "ASSAY_RESULT": 0.151
  },
  {
    "COMPOUND": "CCOC(=O)Cc1csc(NC(=O)N2CCC(N3CCc4ccc(F)cc43)CC2)n1 [Compound 27]",
    "VALUE_PREFIX": "=",
    "ASSAY_RESULT": 0.29
  },
  {
    "COMPOUND": "CCOC(=O)Cc1csc(NC(=O)N2CCC(c3noc4ccc(F)cc34)CC2)n1 [Compound 51]",
    "VALUE_PREFIX": "=",
    "ASSAY_RESULT": 0.579
  },
  {
    "COMPOUND": "O=C(Nc1cccc(CO)c1)N1CCC(N2CCc3ccc(F)cc32)CC1 [Compound 43]",
    "VALUE_PREFIX": "=",
    "ASSAY_RESULT": 0.322
  },
  {
    "COMPOUND": "Cc1cnc(NC(=O)N2CCC(c3noc4ccc(F)cc34)CC2)s1 [Compound 14]",
    "VALUE_PREFIX": "=",
    "ASSAY_RESULT": 0.303
  },
  {
    "COMPOUND": "CNC(=O)Cc1csc(NC(=O)N2CCC(N3CCc4ccc(F)cc43)CC2)n1 [Compound 28]",
    "VALUE_PREFIX": ">",
    "ASSAY_RESULT": 1
  },
  {
    "COMPOUND": "Cc1csc(NC(=O)N2CCC(N3CCc4ccc(F)cc43)CC2)n1 [Compound 20]",
    "VALUE_PREFIX": "=",
    "ASSAY_RESULT": 0.026
  },
  {
    "COMPOUND": "NC(=O)c1cnc(NC(=O)N2CCC(N3CCc4ccc(F)cc43)CC2)s1 [Compound 15]",
    "VALUE_PREFIX": "=",
    "ASSAY_RESULT": 0.022
  },
  {
    "COMPOUND": "O=C(Nc1nc2c(s1)CN(CCO)CC2)N1CCC(N2CCc3ccc(F)cc32)CC1 [Compound 38]",
    "VALUE_PREFIX": "=",
    "ASSAY_RESULT": 0.77
  },
  {
    "COMPOUND": "O=C(Nc1nc(CCO)cs1)N1CCC(N2CCc3ccc(F)cc32)CC1 [Compound 29]",
    "VALUE_PREFIX": "=",
    "ASSAY_RESULT": 0.02
  },
  {
    "COMPOUND": "O=C(Nc1nc2c(s1)CC(O)CC2)N1CCC(c2noc3ccc(F)cc23)CC1 (centres unmarked) [Compound 60]",
    "VALUE_PREFIX": "=",
    "ASSAY_RESULT": 0.039
  }
]
